target: T1, human TGF-beta 1 (R&D Systems, Cat # 240-B/CF) (human, UniProt P01137 279-390); assay: Biacore SPR, mAb captured on Protein A, 5 nM ligand injected; stoichiometry from captured signals
T1 construct: They match K95 and residues 58-61 of mature numbering; also called TGF-β1; mature TGF-β1
T1 sequence (P01137 279-390 limits assumed): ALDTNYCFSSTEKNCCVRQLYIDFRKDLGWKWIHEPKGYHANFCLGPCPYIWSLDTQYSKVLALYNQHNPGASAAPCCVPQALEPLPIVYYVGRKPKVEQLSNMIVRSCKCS
Recorded Stoichiometry of ligand binding values for a group of binders are listed next.
property_measured: Stoichiometry of ligand binding

>  <binder>
mAb 21D1 (antibody, human IgG4 S228P, kappa, V domains shown, Full-length IgG4 antibody; also called LA307-21D1) VH: QVQLVQSGAEVKKPGASVKVSCKASGYTFTDYNIHWVRQAPGQGLEWMGYIYPYDGETGYNQKFKSRVTMTTDTSTSTAYMELRSLRSDDTAVYYCARGYRWFAYWGQGTLVTVSS VL: DIQMTQSPSSLSASVGDRVTITCRASSSVPYMHWFQQKPGKAPKSLIYATSNPAYGVPSRFSGSGSGTDFTLTISSLQPEDFATYYCQQWDLNPPAFGQGTKLEIKR

>  <obs_value>
1.29

$$$$
>  <binder>
mAb 23A3 (antibody, IgG4, V domains shown) VH: QVQLVQSGAEVKKPGASVKVSCKASGYDFTDYNMVWVRQAPGQGLEWMGSIYPYDGETGYNQKFKSRVTMTTDTSTSTAYMELRSLRSDDTAVYYCARGYRAFEYWGQGTLVTVSS VL: DIQMTQSPSSLSASVGDRVTITCRASSSVPYMHWYQQKPGKAPKLLIYATSNPAYGVPSRFSGSGSGTDFTLTISSLQPEDFATYYCQQWDLNPPAFGQGTKLEIK

>  <obs_value>
1.63

$$$$
>  <binder>
mAb DM4 (antibody, human IgG4 S228P, kappa, V domains shown, Full-length IgG4 antibody; also called LA307-DM4) VH: QVQLVQSGAEVKKPGASVKVSCKASGYDFTDYNIHWVRQAPGQGLEWMGYIYPYDGETGYNQKFKSRVTMTTDTSTSTAYMELRSLRSDDTAVYYCARGYRWLAYWGQGTLVTVSS VL: DIQMTQSPSSLSASVGDRVTITCRASSSVSYMHWYQQKPGKAPKPLIYATSNLAYGVPSRFSGSGSGTDFTLTISSLQPEDFATYYCQQWDLNPPAFGQGTKLEIKR

>  <obs_value>
1.55

$$$$
>  <binder>
mAb DM7 (antibody, IgG4, V domains shown) VH: QVQLVQSGAEVKKPGASVKVSCKASGYDFTDYNMHWVRQAPGQGLEWMGYIYPYDGETGYNQKFKSRVTMTTDTSTSTAYMELRSLRSDDTAVYYCARGYRWLYYWGQGTLVTVSS VL: DIQMTQSPSSLSASVGDRVTITCRASSSVSYMHWYQQKPGKAPKPLIYATSNLAKGVPSRFSGSGSGTDFTLTISSLQPEDFATYYCQQWDLNPPAFGQGTKLEIK

>  <obs_value>
1.23

$$$$
